For each of the compounds below, state its pIC50.
Biological target: HEK293 cells expressing NR1/NR2B (Homo sapiens (Human), UniProt Q05586+Q13224)
Sequence (Q13224 27-1484, other chains not shown): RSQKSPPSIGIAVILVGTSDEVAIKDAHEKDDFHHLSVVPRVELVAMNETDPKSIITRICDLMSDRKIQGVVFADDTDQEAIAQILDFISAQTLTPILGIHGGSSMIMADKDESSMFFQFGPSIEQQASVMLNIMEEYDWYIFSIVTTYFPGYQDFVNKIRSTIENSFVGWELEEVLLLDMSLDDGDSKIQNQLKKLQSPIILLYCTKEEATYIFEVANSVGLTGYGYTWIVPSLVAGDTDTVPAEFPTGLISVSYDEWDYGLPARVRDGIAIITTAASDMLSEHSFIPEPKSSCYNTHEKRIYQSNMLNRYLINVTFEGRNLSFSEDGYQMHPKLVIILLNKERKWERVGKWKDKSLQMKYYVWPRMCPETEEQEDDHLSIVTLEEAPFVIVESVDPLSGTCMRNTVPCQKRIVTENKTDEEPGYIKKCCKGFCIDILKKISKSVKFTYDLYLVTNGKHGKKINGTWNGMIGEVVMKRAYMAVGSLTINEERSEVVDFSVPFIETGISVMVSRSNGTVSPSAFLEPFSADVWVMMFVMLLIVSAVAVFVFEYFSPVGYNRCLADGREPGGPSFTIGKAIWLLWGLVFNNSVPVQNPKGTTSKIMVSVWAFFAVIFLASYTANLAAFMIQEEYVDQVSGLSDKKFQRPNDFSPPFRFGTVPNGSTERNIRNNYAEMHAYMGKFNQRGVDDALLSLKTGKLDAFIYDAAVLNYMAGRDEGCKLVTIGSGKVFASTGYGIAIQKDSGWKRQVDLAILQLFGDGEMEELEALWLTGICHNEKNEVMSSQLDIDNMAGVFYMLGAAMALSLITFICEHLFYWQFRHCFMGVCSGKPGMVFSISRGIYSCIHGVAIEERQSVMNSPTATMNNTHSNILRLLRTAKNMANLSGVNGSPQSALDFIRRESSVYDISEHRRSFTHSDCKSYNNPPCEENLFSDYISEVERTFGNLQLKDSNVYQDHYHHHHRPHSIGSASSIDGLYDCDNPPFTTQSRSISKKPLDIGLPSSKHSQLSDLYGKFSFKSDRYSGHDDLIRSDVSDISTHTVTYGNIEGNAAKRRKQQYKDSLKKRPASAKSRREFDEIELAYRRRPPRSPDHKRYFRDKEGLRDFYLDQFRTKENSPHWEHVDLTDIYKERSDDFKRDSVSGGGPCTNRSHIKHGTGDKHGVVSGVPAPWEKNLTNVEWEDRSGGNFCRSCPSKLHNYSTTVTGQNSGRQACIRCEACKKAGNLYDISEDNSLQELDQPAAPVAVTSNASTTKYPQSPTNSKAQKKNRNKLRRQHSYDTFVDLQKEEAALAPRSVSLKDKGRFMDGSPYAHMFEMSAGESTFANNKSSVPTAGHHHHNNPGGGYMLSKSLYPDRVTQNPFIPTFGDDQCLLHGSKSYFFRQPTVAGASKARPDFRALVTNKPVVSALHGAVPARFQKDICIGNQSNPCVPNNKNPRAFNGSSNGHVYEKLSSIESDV
Assay: NR2B NAM Assay (FDSS Ca2+ influx cell assay)
Conditions: NR2B NAM assay, class of inhibitory concentration; read-out: Activity Category
pIC50: −log10 of the molar value.

Q) Which pIC50 reading was recorded for the compound COc1cccc(O[C@H]2C[C@@H]3CN(CC(O)c4ccc(O)cn4)C[C@@H]3C2)c1 (some centres unmarked) ?
A) > 7.00

Q) Which pIC50 reading was recorded for the compound Cc1cccc(O[C@H]2C[C@@H]3CN(CC(=O)c4ccc(O)cc4)C[C@@H]3C2)c1F ?
A) 6.00 to 7.00

Q) Which pIC50 reading was recorded for the compound Oc1ccc(C(O)CN2C[C@H]3C[C@H](Oc4ccc(F)cc4F)C[C@H]3C2)cc1 (some centres unmarked) ?
A) > 7.00

Q) Which pIC50 reading was recorded for the compound Oc1ccc(C(O)CN2C[C@H]3C[C@H](Oc4cnccn4)C[C@H]3C2)cc1 (some centres unmarked) ?
A) 6.00 to 7.00

Q) Which pIC50 reading was recorded for the compound O=C(CN1C[C@H]2C[C@H](Oc3cccc4cnccc34)C[C@H]2C1)c1ccc(O)cc1 ?
A) 6.00 to 7.00

Q) Which pIC50 reading was recorded for the compound O=C(CN1C[C@H]2C[C@H](Oc3c(F)cccc3F)C[C@H]2C1)c1ccc(O)cn1 ?
A) 5.00 to 6.00

Q) Which pIC50 reading was recorded for the compound COc1ccc(O[C@H]2C[C@@H]3CN(CC(O)c4ccc(O)cn4)C[C@@H]3C2)cc1 (some centres unmarked) ?
A) > 7.00

Q) Which pIC50 reading was recorded for the compound COc1ccc(O[C@@H]2C[C@@H]3CN(CC(=O)c4ccc(O)cc4)C[C@@H]3C2)cc1 ?
A) > 7.00

Q) Which pIC50 reading was recorded for the compound O=C(CN1C[C@H]2C[C@H](Oc3ccncc3)C[C@H]2C1)c1ccc(O)cc1 ?
A) 5.00 to 6.00

Q) Which pIC50 reading was recorded for the compound O=C(CN1C[C@H]2C[C@H](Oc3ccc(F)nc3)C[C@H]2C1)c1ccc(O)cn1 ?
A) < 5.00

Q) Which pIC50 reading was recorded for the compound Oc1ccc(C(O)CN2C[C@H]3C[C@H](Oc4ccc(F)c(F)c4)C[C@H]3C2)nc1 (some centres unmarked) ?
A) > 7.00

Q) Which pIC50 reading was recorded for the compound COc1cccc(O[C@H]2C[C@@H]3CN(CC(=O)c4ccc(O)cn4)C[C@@H]3C2)c1F ?
A) 5.00 to 6.00

Q) Which pIC50 reading was recorded for the compound N#Cc1ccc(O[C@H]2C[C@@H]3CN(CC(O)c4ccc(O)cn4)C[C@@H]3C2)cc1 (some centres unmarked) ?
A) > 7.00

Q) Which pIC50 reading was recorded for the compound O=C(CN1C[C@H]2CC(S(=O)(=O)c3ccccc3)C[C@H]2C1)c1ccc(O)cc1 (some centres unmarked) ?
A) 5.00 to 6.00

Q) Which pIC50 reading was recorded for the compound COc1ccc(F)c(O[C@H]2C[C@@H]3CN(CC(=O)c4ccc(O)cn4)C[C@@H]3C2)c1 ?
A) < 5.00

Q) Which pIC50 reading was recorded for the compound OC(CN1C[C@H]2C[C@H](Oc3ccc(F)cc3)C[C@H]2C1)c1cnn(Cc2ccccc2)c1 (some centres unmarked) ?
A) < 5.00

Q) Which pIC50 reading was recorded for the compound COc1ccc(O[C@H]2C[C@@H]3CN(CC(O)c4ccc(O)c(OC)n4)C[C@@H]3C2)cc1 (some centres unmarked) ?
A) 5.00 to 6.00

----------
Biological target: HEK293 cells expressing NR1/NR2B (Homo sapiens (Human))
Test: NR2B NAM Assay (FDSS Ca2+ influx cell assay)
Type: cell-based
Settings: Ca2+ influx inhibition relative to MK801; 3 μM glutamate, 3 μM glycine, 1 mM Ca2+; read-out: NR2B NAM IC50
Experimental: Cell Culture and plating: HEK293 cells expressing NR1/NR2B (Chantest, Cleveland, Ohio) were grown to 70-80% confluency as an adherent monolayer in standard tissue culture flasks at 37° C., 5% CO2 per supplier's instructions. […] After induction, cell culture medium was removed and cells were rinsed once with Ca^2+ and Mg^2+-free Dulbecco's phosphate buffered saline. […] Following two washes in Ca^2+/Mg^2+-free HBSS with 20 mM HEPES (HHnoCa), cells were counted and viability assessed using trypan blue. […]
hey, just use Fulfilled if measured IC50 is less than 100 nM, otherwise Not fulfilled

Q) Could you please tell me whether IC50 recorded for Oc1ccc(C(O)CN2C[C@H]3C[C@H](Oc4cccnc4F)C[C@H]3C2)nc1 (some centres unmarked) is less than 100 nM?
A) Fulfilled

Q) Could you please tell me whether IC50 recorded for COc1cccc(O[C@H]2C[C@@H]3CN(CC(O)c4ccc(O)cn4)C[C@@H]3C2)c1 (some centres unmarked) is less than 100 nM?
A) Fulfilled

Q) Could you please tell me whether IC50 recorded for Cc1ccc(O[C@H]2C[C@@H]3CN(CC(=O)c4ccc(O)c(F)c4)C[C@@H]3C2)cn1 is less than 100 nM?
A) Not fulfilled

Q) Could you please tell me whether IC50 recorded for Oc1ccc(C(O)CN2C[C@H]3C[C@H](Oc4ccccc4)C[C@H]3C2)cc1 (some centres unmarked) is less than 100 nM?
A) Fulfilled

Q) Could you please tell me whether IC50 recorded for OC(CN1C[C@H]2C[C@H](Oc3ccc(F)cc3)C[C@H]2C1)c1cnn(Cc2ccccc2)c1 (some centres unmarked) is less than 100 nM?
A) Not fulfilled

Q) Could you please tell me whether IC50 recorded for Oc1ccc(C(O)CN2C[C@H]3C[C@H](Oc4cccc(F)c4F)C[C@H]3C2)nc1 (some centres unmarked) is less than 100 nM?
A) Fulfilled

Q) Could you please tell me whether IC50 recorded for Oc1ccc(C(O)CN2C[C@H]3C[C@@H](Oc4ccc(F)c(F)c4)C[C@H]3C2)nc1 (some centres unmarked) is less than 100 nM?
A) Fulfilled

Q) Could you please tell me whether IC50 recorded for Oc1ccc(C(O)CN2C[C@H]3C[C@H](Oc4c(F)cccc4F)C[C@H]3C2)cc1 (some centres unmarked) is less than 100 nM?
A) Fulfilled

Q) Could you please tell me whether IC50 recorded for Oc1ccc(C(O)CN2C[C@H]3C[C@H](Oc4ccc(F)cc4F)C[C@H]3C2)nc1 (some centres unmarked) is less than 100 nM?
A) Fulfilled

Q) Could you please tell me whether IC50 recorded for Cc1cccc(O[C@H]2C[C@@H]3CN(CC(=O)c4ccc(O)cc4)C[C@@H]3C2)c1F is less than 100 nM?
A) Not fulfilled

Q) Could you please tell me whether IC50 recorded for Oc1ccc(C(O)CN2C[C@H]3C[C@@H](Oc4cccnc4)C[C@H]3C2)cc1 (some centres unmarked) is less than 100 nM?
A) Not fulfilled

Q) Could you please tell me whether IC50 recorded for Cc1ncccc1O[C@H]1C[C@@H]2CN(CC(O)c3ccc(O)cc3)C[C@@H]2C1 (some centres unmarked) is less than 100 nM?
A) Not fulfilled

Q) Could you please tell me whether IC50 recorded for Oc1ccc([C@@H](O)CN2C[C@H]3C[C@H](Oc4ccccc4)C[C@H]3C2)nc1 is less than 100 nM?
A) Fulfilled

Q) Could you please tell me whether IC50 recorded for Cc1ccc(O[C@H]2C[C@@H]3CN(CC(O)c4ccc(O)cc4)C[C@@H]3C2)cn1 (some centres unmarked) is less than 100 nM?
A) Not fulfilled

Q) Could you please tell me whether IC50 recorded for COc1ccc(F)c(O[C@H]2C[C@@H]3CN(CC(O)c4ccc(O)cn4)C[C@@H]3C2)c1 (some centres unmarked) is less than 100 nM?
A) Not fulfilled

Q) Could you please tell me whether IC50 recorded for COc1ccc(F)c(O[C@H]2C[C@@H]3CN(CC(O)c4ccc(O)cc4)C[C@@H]3C2)c1 (some centres unmarked) is less than 100 nM?
A) Not fulfilled

Q) Could you please tell me whether IC50 recorded for Oc1ccc(C(O)CN2C[C@H]3C[C@H](Oc4cc(F)cc(F)c4)C[C@H]3C2)nc1 (some centres unmarked) is less than 100 nM?
A) Fulfilled

----------
Target: HEK293 cells expressing NR1/NR2B (Homo sapiens (Human), UniProt Q05586+Q13224)
Assay: NR2B NAM Assay (FDSS Ca2+ influx cell assay)
Assay type: cell-based
Details: NR2B NAM assay, class of inhibitory concentration; read-out: Activity Category
For each of the molecules below, state its IC50.

Q) Which IC50 reading was recorded for the molecule Oc1ccc(C(O)CN2C[C@H]3C[C@H](Oc4ccc(F)c(F)c4)C[C@H]3C2)cc1 (stereo partly shown) ?
A) < 100 nM

Q) Which IC50 reading was recorded for the molecule COc1ccc(O[C@H]2C[C@@H]3CN(CC(O)c4ccc(O)c(F)n4)C[C@@H]3C2)cc1 (stereo partly shown) ?
A) 1000 to 10000 nM

Q) Which IC50 reading was recorded for the molecule Oc1ccc(C(O)CN2C[C@H]3C[C@H](Oc4ccc(F)cc4)C[C@H]3C2)nc1F (stereo partly shown) ?
A) < 100 nM

Q) Which IC50 reading was recorded for the molecule O=C(CN1C[C@H]2C[C@H](Oc3cccc(F)c3F)C[C@H]2C1)c1ccc(O)cn1 ?
A) 100 to 1000 nM

Q) Which IC50 reading was recorded for the molecule O=C(CN1C[C@H]2C[C@H](Oc3cncnc3)C[C@H]2C1)c1ccc(O)cc1 ?
A) 1000 to 10000 nM

Q) Which IC50 reading was recorded for the molecule O=C(CN1C[C@H]2C[C@H](Oc3ccccc3F)C[C@H]2C1)c1ccc(O)cn1 ?
A) 100 to 1000 nM

Q) Which IC50 reading was recorded for the molecule O=C(CN1C[C@H]2C[C@H](Oc3ccc(F)cc3)C[C@H]2C1)c1ccc(O)cc1 ?
A) < 100 nM

Q) Which IC50 reading was recorded for the molecule O=C(CN1C[C@H]2C[C@@H](Oc3ccc(F)cc3)C[C@H]2C1)c1ccc(O)c(F)c1 ?
A) < 100 nM

Q) Which IC50 reading was recorded for the molecule O=C(CN1C[C@H]2C[C@H](Oc3cc(F)cc(F)c3)C[C@H]2C1)c1ccc(O)cn1 ?
A) > 10000 nM

Q) Which IC50 reading was recorded for the molecule Oc1ccc(C(O)CN2C[C@H]3C[C@H](Oc4c(F)cccc4F)C[C@H]3C2)cc1 (stereo partly shown) ?
A) < 100 nM

Q) Which IC50 reading was recorded for the molecule Oc1ccc(C(O)CN2C[C@H]3C[C@H](Oc4ccccc4)C[C@H]3C2)nc1 (stereo partly shown) ?
A) < 100 nM

Q) Which IC50 reading was recorded for the molecule Oc1ccc(C(O)CN2C[C@H]3C[C@@H](Oc4ccc(F)cc4)C[C@H]3C2)cc1F (stereo partly shown) ?
A) < 100 nM

Q) Which IC50 reading was recorded for the molecule Oc1ccc(C(O)CN2C[C@H]3C[C@H](Oc4cncc(F)c4)C[C@H]3C2)cc1 (stereo partly shown) ?
A) 100 to 1000 nM

Q) Which IC50 reading was recorded for the molecule COC(CN1C[C@H]2C[C@H](Oc3ccc(F)cc3)C[C@H]2C1)c1ccc(O)cc1 (stereo partly shown) ?
A) 100 to 1000 nM

Q) Which IC50 reading was recorded for the molecule COc1cccc(F)c1O[C@H]1C[C@@H]2CN(CC(O)c3ccc(O)cn3)C[C@@H]2C1 (stereo partly shown) ?
A) 100 to 1000 nM

Q) Which IC50 reading was recorded for the molecule N#Cc1cccc(O[C@H]2C[C@@H]3CN(CC(=O)c4ccc(O)cn4)C[C@@H]3C2)c1 ?
A) > 10000 nM

Q) Which IC50 reading was recorded for the molecule COc1cccc(O[C@H]2C[C@@H]3CN(CC(O)c4ccc(O)cn4)C[C@@H]3C2)c1F (stereo partly shown) ?
A) < 100 nM

Q) Which IC50 reading was recorded for the molecule O=C(CN1C[C@H]2C[C@H](Oc3ccccc3F)C[C@H]2C1)c1ccc(O)cc1 ?
A) < 100 nM

Q) Which IC50 reading was recorded for the molecule COc1cccc(O[C@H]2C[C@@H]3CN(CC(=O)c4ccc(O)cn4)C[C@@H]3C2)c1 ?
A) > 10000 nM

Q) Which IC50 reading was recorded for the molecule O=C(CN1C[C@H]2C[C@H](Oc3ccc(F)cc3F)C[C@H]2C1)c1ccc(O)cn1 ?
A) 1000 to 10000 nM

Q) Which IC50 reading was recorded for the molecule COc1ccc(O[C@H]2C[C@@H]3CN(CC(=O)c4ccc(O)cn4)C[C@@H]3C2)cc1 ?
A) > 10000 nM

Q) Which IC50 reading was recorded for the molecule O=C(CN1C[C@H]2C[C@H](Sc3ccccc3)C[C@H]2C1)c1ccc(O)cc1 ?
A) < 100 nM

Q) Which IC50 reading was recorded for the molecule OC(CN1C[C@H]2C[C@H](Oc3ccc(F)cc3)C[C@H]2C1)c1cn[nH]c1 (stereo partly shown) [drawing 256] ?
A) 1000 to 10000 nM

Q) Which IC50 reading was recorded for the molecule O=C(CN1C[C@H]2C[C@@H](Oc3ccc(F)c(F)c3)C[C@H]2C1)c1ccc(O)cc1 ?
A) < 100 nM

Q) Which IC50 reading was recorded for the molecule N#Cc1ccc(O[C@H]2C[C@@H]3CN(CC(=O)c4ccc(O)cn4)C[C@@H]3C2)cc1 ?
A) > 10000 nM

Q) Which IC50 reading was recorded for the molecule Cc1ccc(O[C@H]2C[C@@H]3CN(CC(=O)c4ccc(O)cc4)C[C@@H]3C2)c(F)c1 ?
A) 100 to 1000 nM

Q) Which IC50 reading was recorded for the molecule O=C(CN1C[C@H]2C[C@H](Oc3cccnc3)C[C@H]2C1)c1ccc(O)cc1 ?
A) < 100 nM

Q) Which IC50 reading was recorded for the molecule O=C(CN1C[C@H]2C[C@H](Oc3cnccn3)C[C@H]2C1)c1ccc(O)cc1 ?
A) 100 to 1000 nM

Q) Which IC50 reading was recorded for the molecule O=C(CN1C[C@H]2C[C@H](Oc3cncc(Cl)c3)C[C@H]2C1)c1ccc(O)cc1 ?
A) 100 to 1000 nM

Q) Which IC50 reading was recorded for the molecule O=C(CN1C[C@H]2C[C@H](Oc3ccc(F)cc3)C[C@H]2C1)c1ccc(O)c(F)n1 ?
A) > 10000 nM

Q) Which IC50 reading was recorded for the molecule O=C(CN1C[C@H]2C[C@@H](Oc3cc(F)cc(F)c3)C[C@H]2C1)c1ccc(O)cn1 ?
A) > 10000 nM

Q) Which IC50 reading was recorded for the molecule Oc1ccc(C(O)CN2C[C@H]3C[C@H](Oc4c(F)cccc4F)C[C@H]3C2)nc1 (stereo partly shown) ?
A) < 100 nM

Q) Which IC50 reading was recorded for the molecule COc1ccc(O[C@@H]2C[C@@H]3CN(CC(O)c4ccc(O)cn4)C[C@@H]3C2)cc1 (stereo partly shown) ?
A) 100 to 1000 nM

Q) Which IC50 reading was recorded for the molecule O=C(CN1C[C@H]2C[C@H](Oc3ccccc3)C[C@H]2C1)c1ccc(O)cc1 ?
A) < 100 nM

Data origin: patent US10239835B2
